# target: Cytochrome P450 3A5 (Homo sapiens, UniProt P20815)
# Sequence (P20815 whole entry): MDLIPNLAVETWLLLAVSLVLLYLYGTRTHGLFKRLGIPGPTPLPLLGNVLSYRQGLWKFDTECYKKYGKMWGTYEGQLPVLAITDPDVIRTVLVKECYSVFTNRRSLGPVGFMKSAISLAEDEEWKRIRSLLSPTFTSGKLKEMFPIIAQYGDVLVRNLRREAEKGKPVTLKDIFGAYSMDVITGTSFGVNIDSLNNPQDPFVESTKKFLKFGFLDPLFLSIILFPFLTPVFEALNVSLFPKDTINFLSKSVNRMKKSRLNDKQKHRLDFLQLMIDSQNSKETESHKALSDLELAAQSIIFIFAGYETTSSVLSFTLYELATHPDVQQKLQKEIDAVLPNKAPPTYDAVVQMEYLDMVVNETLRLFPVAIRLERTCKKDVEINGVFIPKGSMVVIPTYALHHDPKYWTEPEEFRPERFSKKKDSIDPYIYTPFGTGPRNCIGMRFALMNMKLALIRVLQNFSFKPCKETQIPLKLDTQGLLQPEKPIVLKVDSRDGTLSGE
# experimental_protocol: Inhibition of recombinant human CYP3A5 using midazolam as substrate
# Assay type: ADME
value_type: IC50

Lab note: CS(=O)(=O)n1cc2c(n1)CN([C@@H]1C[C@H](N)[C@@H](c3cc(F)ccc3F)O[C@@H]1C(F)(F)F)C2 [COFROGLIPTIN] gave IC50 of > 100 µM

---

# target: Cytochrome P450 2D6 (Homo sapiens, UniProt P10635)
# Sequence (P10635 whole entry): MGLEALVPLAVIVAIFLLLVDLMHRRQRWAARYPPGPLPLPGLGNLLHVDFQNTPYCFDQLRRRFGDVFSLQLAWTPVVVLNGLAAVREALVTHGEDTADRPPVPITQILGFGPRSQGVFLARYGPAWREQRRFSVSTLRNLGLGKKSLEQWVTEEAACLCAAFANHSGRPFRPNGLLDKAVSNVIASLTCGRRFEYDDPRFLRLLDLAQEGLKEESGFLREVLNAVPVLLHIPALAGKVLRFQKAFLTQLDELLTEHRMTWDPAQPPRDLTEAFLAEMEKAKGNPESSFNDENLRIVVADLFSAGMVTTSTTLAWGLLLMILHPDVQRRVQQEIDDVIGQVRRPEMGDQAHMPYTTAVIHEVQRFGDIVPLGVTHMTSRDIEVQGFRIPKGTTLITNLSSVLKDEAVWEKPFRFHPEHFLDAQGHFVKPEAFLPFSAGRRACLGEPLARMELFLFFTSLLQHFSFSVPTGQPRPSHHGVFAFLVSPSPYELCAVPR
# experimental_protocol: Inhibition of recombinant human CYP2D6
# Format: ADME
pIC50: −log10 of the molar value.
value_type: pIC50

Case `CS(=O)(=O)n1cc2c(n1)CN([C@@H]1C[C@H](N)[C@@H](c3cc(F)ccc3F)O[C@@H]1C(F)(F)F)C2` , Cytochrome P450 2D6 (Homo sapiens, UniProt P10635), pIC50 recorded as < 4.00

---

# target: CYP2D6 (Homo sapiens)
# Sequence (P10635 whole entry): as the sequence (P10635 whole entry) above
# experimental_protocol: Stability assessed as recombinant human CYP2D6 mediated compound metabolism by measuring parent compound remaining after 30 mins relative to control
# Assay type: ADME
# applied_conditions: read-out: Stability
value_type: remaining at 0.5 h

// compound `CS(=O)(=O)n1cc2c(n1)CN([C@@H]1C[C@H](N)[C@@H](c3cc(F)ccc3F)O[C@@H]1C(F)(F)F)C2` , assay CYP2D6 (Homo sapiens), remaining at 0.5 h value: > 95%

---

# experimental_protocol: Clearance in ICR mouse at 0.5 mg/kg, iv measured after 0.0833 to 120 hrs by LC-MS-MS analysis
# Format: ADME, organism-based
# applied_conditions: in vivo
value_type: clearance (mL/min/kg)
Numbers only, in mL/min/kg.

Working through the 3 compounds below one at a time, give clearance for each.
1. CS(=O)(=O)n1cc2c(n1)CN([C@H]1CO[C@H](c3cc(F)ccc3F)[C@@H](N)[C@H]1F)C2
2. CS(=O)(=O)n1cc2c(n1)CN([C@H]1CO[C@H](c3cc(F)ccc3F)[C@@H](N)C1)C2
3. CS(=O)(=O)n1cc2c(n1)CN([C@@H]1C[C@H](N)[C@@H](c3cc(F)c(F)cc3F)O[C@@H]1C(F)(F)F)C2

Reply |
[0.645, 7.39, 1.44]

clearance for `CS(=O)(=O)n1cc2c(n1)CN([C@@H]1C[C@H](N)[C@@H](c3cc(F)ccc3F)O[C@@H]1C(F)(F)F)C2` is 2.57

---

# target: UniProt:P08684
# Sequence (P08684 whole entry): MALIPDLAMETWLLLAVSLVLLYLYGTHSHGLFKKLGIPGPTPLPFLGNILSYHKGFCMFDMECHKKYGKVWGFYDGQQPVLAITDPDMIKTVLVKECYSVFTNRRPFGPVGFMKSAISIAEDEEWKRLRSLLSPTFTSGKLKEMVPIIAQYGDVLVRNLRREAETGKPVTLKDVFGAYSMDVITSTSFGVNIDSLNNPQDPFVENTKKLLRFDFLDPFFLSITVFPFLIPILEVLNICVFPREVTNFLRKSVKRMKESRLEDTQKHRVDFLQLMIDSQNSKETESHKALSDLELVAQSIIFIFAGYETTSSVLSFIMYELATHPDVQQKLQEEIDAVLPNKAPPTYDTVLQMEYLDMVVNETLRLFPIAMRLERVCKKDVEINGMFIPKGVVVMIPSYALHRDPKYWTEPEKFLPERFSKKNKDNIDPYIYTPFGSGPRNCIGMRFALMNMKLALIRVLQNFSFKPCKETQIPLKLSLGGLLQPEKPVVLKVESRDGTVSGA
# experimental_protocol: Inhibition of recombinant human CYP3A4 using testosterone as substrate
# Format: ADME
pIC50: −log10 of the molar value.
value_type: pIC50

Per the record, `CS(=O)(=O)n1cc2c(n1)CN([C@@H]1C[C@H](N)[C@@H](c3cc(F)ccc3F)O[C@@H]1C(F)(F)F)C2` has pIC50 of < 4.00

---

# target: Cytochrome P450 2C9 (Homo sapiens, UniProt P11712)
# Sequence (P11712 whole entry): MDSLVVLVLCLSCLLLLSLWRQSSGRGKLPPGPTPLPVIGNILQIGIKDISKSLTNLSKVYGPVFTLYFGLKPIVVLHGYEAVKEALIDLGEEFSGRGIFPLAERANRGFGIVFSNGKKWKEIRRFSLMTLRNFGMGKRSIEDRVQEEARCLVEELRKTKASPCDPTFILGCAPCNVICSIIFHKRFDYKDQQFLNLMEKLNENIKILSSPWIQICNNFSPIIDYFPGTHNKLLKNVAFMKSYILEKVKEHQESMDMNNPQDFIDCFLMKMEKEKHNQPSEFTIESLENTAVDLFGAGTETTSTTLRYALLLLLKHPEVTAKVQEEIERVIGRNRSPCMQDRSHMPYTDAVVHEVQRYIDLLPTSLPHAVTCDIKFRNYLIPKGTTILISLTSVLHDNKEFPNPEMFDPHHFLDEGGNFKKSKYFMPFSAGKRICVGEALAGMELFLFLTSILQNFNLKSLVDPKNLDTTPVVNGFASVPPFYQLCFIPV
# experimental_protocol: Inhibition of recombinant human CYP2C9
# Type: ADME
value_type: IC50

Notebook: `CS(=O)(=O)n1cc2c(n1)CN([C@@H]1C[C@H](N)[C@@H](c3cc(F)ccc3F)O[C@@H]1C(F)(F)F)C2` , IC50 read as > 100 µM

---

# target: Cytochrome P450 2C9 (Homo sapiens, UniProt P11712)
# experimental_protocol: Inhibition of recombinant human CYP2C9
# Format: ADME
value_type: IC50

For record CS(=O)(=O)n1cc2c(n1)CN([C@@H]1C[C@H](N)[C@@H](c3cc(F)ccc3F)O[C@@H]1C(F)(F)F)C2 [COFROGLIPTIN] the listed IC50 is > 100 µM
